Hey, just so you know, these numbers are from paper PMC3433420.

# ASSAY SYSTEM: PTPN11-NC tandem SH2 domains (Homo sapiens, UniProt Q06124)
# Sequence (Q06124 6-216 limits assumed): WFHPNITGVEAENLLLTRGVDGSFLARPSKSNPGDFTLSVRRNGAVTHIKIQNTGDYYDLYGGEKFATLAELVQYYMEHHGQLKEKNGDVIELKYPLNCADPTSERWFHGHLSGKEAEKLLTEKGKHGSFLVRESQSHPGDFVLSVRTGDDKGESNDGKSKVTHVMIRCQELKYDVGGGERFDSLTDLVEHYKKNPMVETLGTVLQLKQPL
pKd: −log10 of the molar value. Residues, ends and D or L forms follow the SMILES beside them.
ASSAY READOUT: pKd

1) CC[C@H](C)[C@H](NC(=O)[C@H](Cc1c[nH]c2ccccc12)NC(=O)[C@H](CC(C)C)NC(=O)CNC(=O)[C@H](CCCCN)NC(=O)[C@H](Cc1ccc(OP(=O)(O)O)cc1)NC(=O)[C@@H](NC(=O)[C@@H](NC(=O)CNC(=O)[C@@H](N)Cc1ccccc1)[C@@H](C)O)C(C)C)C(=O)N1CCC[C@H]1C(=O)N[C@@H](CCC(=O)O)C(=O)N[C@@H](CC(=O)O)C(=O)O [ErbB1 pY727] (HELM PEPTIDE1{F.G.T.V.[O=C([C@H](Cc1ccc(OP(=O)(O)O)cc1)N[*:1])[*:2]].K.G.L.W.I.P.E.D}$$$$V2.0) ... 5.50
